Molecular target: Arginase-2, mitochondrial (Homo sapiens)
Sequence (whole entry): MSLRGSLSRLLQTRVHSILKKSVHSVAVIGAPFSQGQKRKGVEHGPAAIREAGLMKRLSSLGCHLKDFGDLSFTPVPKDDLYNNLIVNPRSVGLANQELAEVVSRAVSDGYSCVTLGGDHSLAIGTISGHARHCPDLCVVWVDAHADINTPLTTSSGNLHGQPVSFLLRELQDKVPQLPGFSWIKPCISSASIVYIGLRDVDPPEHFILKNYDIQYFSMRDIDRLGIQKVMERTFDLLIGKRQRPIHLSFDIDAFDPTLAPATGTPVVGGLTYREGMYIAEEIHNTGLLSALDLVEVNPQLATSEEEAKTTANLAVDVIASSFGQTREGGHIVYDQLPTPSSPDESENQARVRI
Assay: in vitro enzyme assay to detect the production of urea directly proportional to the activity of Arginase II
Assay type: functional
Set-up: scale not given: in the data most compounds retested in dose-response had high values
Details: 33.3 µM
Can you tell me Percent Effect for the items I'm about to list?
Numbers only; they are read as %.

query: Return reported Percent Effect; argument: Cc1nnc(CN2CCCC(c3cc(C(N)=O)[nH]n3)C2)o1 (centres undefined)
result: 0

query: Same thing, different compound: Cc1ccc(NC(=O)CNc2cccc3c2CCCC3)c(Br)c1
result: 27.1

query: Okay, and COc1ccc(OCC(=O)NC(C)c2ccc(F)cc2)c(C(=O)O)c1 (centres undefined) ?
result: 5.21

query: Another compound to check: O=C1CO[C@@H]2CN(CC3CCOCC3)C[C@H]2N1CC1CC1
result: 5.41

query: Now this one: COc1cccc2c1OCC(C(=O)NC1CCN(S(C)(=O)=O)CC1)C2 (centres undefined)
result: 12.2

query: Now give it for Cn1cc(-c2nc(CN3CCc4c(ncn4C4CC4)C3)cs2)cn1 too.
result: -0.615

query: Consider next the compound O=C(CCc1cc2n(n1)CCN(Cc1ncc[nH]1)C2)N1CCCC1 in the same way.
result: 13.6

query: Then this compound: COCc1nc(C(=O)NS(=O)(=O)c2ccc(C)cc2C)cs1
result: 4.1

query: Please answer likewise for CN(C)C(=O)N1Cc2nnn(C)c2C(COCC2CC2)C1 (centres undefined)
result: 2

query: Next compound: Cc1[nH]ncc1CCCNC(=O)Nc1ccc(C#N)cc1
result: 2.38

query: Same question for Cc1ncccc1O[C@H]1CCN(C(=O)Cc2cccs2)CC[C@@H]1O please.
result: -0.443

query: Also O=C(CN1CC(n2cccn2)C1)NCCCc1ccccc1 , if possible.
result: 1.29

query: Again, but for Cc1nnsc1C(=O)N1CCC2(CC1)c1nc[nH]c1CCN2CC(C)C
result: -2.08

query: Please give the result for CCc1nc(C2CCCN2C(=O)CCc2ccc3c(c2)OCO3)no1 (centres undefined) too.
result: -3.14

query: Also check COc1cccc(-c2nccnc2C2CCN(C(C)=O)CC2)c1
result: 1.16

query: Repeat with CN1CCN(CC2CC2)C(=O)c2cnc(N3CC[C@@H](O)C3)nc21
result: -4.43

query: Repeat for the following compound: COCCN1CCN(C(=O)C2CC=CC2)Cc2cccnc21
result: -55.4

query: Another compound to look at: CCc1nnsc1C(=O)N1CCCN(Cc2cnn(C)c2)CC1
result: -0.21

query: Repeat for the following compound: CC(=O)c1cccc(OCCCC(=O)N(C)Cc2cccc(O)c2)c1
result: 4.29

query: Please do the same for Cc1nnc(NC(=O)NC2CCOc3ccccc32)s1 (centres undefined) as well.
result: -4.39

query: Another: N#Cc1cc(NS(=O)(=O)c2ccc(C(=O)O)cc2F)ccc1F
result: 4.41

query: Also check CC(NC(=O)N(C)Cc1ccsc1)c1ccc2c(c1)NC(=O)CO2 (centres undefined)
result: 1.15

query: Now the compound CCNC(=O)CCc1c(C)nc2cc(O)nn2c1C
result: 4.63

query: Continue with Cn1cc(CN2CCCN(C(=O)c3cn4ccccc4n3)CC2)cn1
result: -0.41
